EXPERIMENTAL_SYSTEM: Mas-related G-protein coupled receptor member X4 (Homo sapiens)
Sequence (Q96LA9 whole entry): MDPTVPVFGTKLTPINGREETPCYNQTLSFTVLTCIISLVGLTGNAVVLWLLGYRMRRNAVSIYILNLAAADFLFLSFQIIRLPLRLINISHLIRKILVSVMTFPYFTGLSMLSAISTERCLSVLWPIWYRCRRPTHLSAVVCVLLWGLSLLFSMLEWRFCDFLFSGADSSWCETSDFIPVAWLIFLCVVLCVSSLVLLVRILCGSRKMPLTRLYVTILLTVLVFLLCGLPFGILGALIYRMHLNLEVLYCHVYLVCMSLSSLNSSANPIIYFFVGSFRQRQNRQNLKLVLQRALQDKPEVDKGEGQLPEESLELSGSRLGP
TEST_METHOD_NOTES: Antagonist activity at human MRGPRX4 expressed in HEK cells incubated in dark for 1 hr at 37 degree C and then incubated for 30 mins at room temperature in presence of […] bilirubin by HTRF assay
Format: functional, cell-based
pIC50: −log10 of the molar value.
Below: a set of entries, each annotated with reported pIC50.

Consider the reported pIC50 for these molecules:
SMILES_ENTRY	pIC50
O=C(O)c1cccc(COc2ccc3sccc3c2Cl)c1F	> 7.00
O=C(O)c1cccc(CNc2ccc(C(F)(F)F)cc2Cl)n1	> 7.00
O=C(O)c1cc(Br)cc(COc2ccc(C(F)(F)F)cc2Cl)n1	> 7.00

According to the records, this molecule CCc1cc(COc2ccc(C(F)(F)F)cc2Cl)nc(C(=O)O)c1 displays pIC50 of > 7.00

According to the records, this molecule Cc1cc(COc2ccc(C(F)(F)F)cc2Cl)nc(C(=O)O)c1 displays pIC50 of > 7.00

According to the records, this molecule FC(F)(F)Oc1ccc(OCc2cccc(-c3nnn[nH]3)c2)c(Cl)c1 displays pIC50 of > 7.00

According to the records, this molecule N#Cc1ccc(OCc2cccc(C(=O)O)c2)cc1 displays pIC50 of < 5.60

According to the records, this molecule O=C(O)c1cccc(COc2cccc3c2OC(F)(F)O3)c1 displays pIC50 of < 5.60

According to the records, this molecule O=C(O)c1cc(Cl)cc(COc2ccc(Cl)cc2Cl)c1 displays pIC50 of > 7.00

According to the records, this molecule COC(=O)c1cccc(COc2ccc(Cl)cc2Cl)c1 displays pIC50 of < 5.60

According to the records, this molecule CC(=O)c1ccc(OCc2cccc(C(=O)O)c2)cc1 displays pIC50 of < 5.60

According to the records, this molecule Cc1cc(OCc2cccc(C(=O)O)c2)ccc1OC(F)(F)F displays pIC50 of < 5.60

---

EXPERIMENTAL_SYSTEM: Mas-related G-protein coupled receptor member X4 (Homo sapiens)
TEST_METHOD_NOTES: Antagonist activity at human MRGPRX4 expressed in HEK cells incubated in dark for 1 hr at 37 degree C and then incubated for 30 mins at room temperature in presence of […] bilirubin by HTRF assay
Type: functional, cell-based
MEASURE: IC50

SMILES_ENTRY	IC50
Cc1ccc(COc2ccc(Cl)cc2Cl)cc1C(=O)O	> 2500 nM
O=C(O)c1cccc(COc2ccc(Cl)cc2C(F)(F)F)c1F	< 100 nM
O=C(O)c1cccc(COc2ccc(-c3ccccc3)cc2)c1	> 2500 nM
Cc1cc(COc2ccc(Cl)c(Cl)c2Cl)nc(C(=O)O)c1	< 100 nM
N#Cc1cc(COc2ccc(OC(F)(F)F)cc2Cl)cc(C(=O)O)c1	< 100 nM
O=C(O)c1cccc(COc2ccc(F)cc2Cl)c1	> 2500 nM
Cc1cc(C(F)(F)F)ccc1OCc1cc(C#N)cc(C(=O)O)c1	< 100 nM
O=C(O)c1cc(Cl)cc(COc2ccc(C(F)(F)F)cc2Cl)c1	< 100 nM

Case CCOC(=O)c1cccc(COc2ccc(C(F)(F)F)cc2Cl)n1 , Mas-related G-protein coupled receptor member X4 (Homo sapiens), IC50 recorded as < 100 nM

Case O=C(O)c1cccc(Oc2ccc([N+](=O)[O-])cc2Cl)c1 , Mas-related G-protein coupled receptor member X4 (Homo sapiens), IC50 recorded as > 2500 nM

Case O=C(O)c1cccc(COc2ccc3ccccc3c2)n1 , Mas-related G-protein coupled receptor member X4 (Homo sapiens), IC50 recorded as < 100 nM

Case O=C(O)c1cccc(COc2ccc(Cl)c(Cl)c2Cl)c1 , Mas-related G-protein coupled receptor member X4 (Homo sapiens), IC50 recorded as < 100 nM

---

TEST_METHOD_NOTES: Stability of compound assessed as parent compound remaining after stored for 24 hrs in dark freezer condition by LC-MS/MS analysis
Type: physicochemical
CONDITION_INFO: read-out: Stabilty
MEASURE: remaining at 24 h (%)
Report as a plain number; the unit % is understood.

According to the records, this molecule C=CC1=C(C)/C(=C/c2[nH]c(Cc3[nH]c(/C=C4\NC(=O)C(C)=C4C=C)c(C)c3CCC(=O)O)c(CCC(=O)O)c2C)NC1=O displays remaining at 24 h of 44

---

EXPERIMENTAL_SYSTEM: Mas-related G-protein coupled receptor member X4 (Homo sapiens)
TEST_METHOD_NOTES: Antagonist activity at human MRGPRX4 expressed in HEK cells incubated in dark for 1 hr at 37 degree C and then incubated for 30 mins at room temperature in presence of […] bilirubin by HTRF assay
Type: functional, cell-based
MEASURE: IC50

According to the records, this molecule O=C(O)c1cc(F)cc(COc2ccc3ccccc3c2)c1 displays IC50 of < 100 nM

According to the records, this molecule O=C(O)c1cc(COc2ccc(C(F)(F)F)cc2Cl)cc(C2CC2)c1 displays IC50 of < 100 nM

According to the records, this molecule FC(F)(F)Oc1ccc(OCc2cccc(-c3nnn[nH]3)c2)cc1Cl displays IC50 of < 100 nM

According to the records, this molecule N#Cc1cc(COc2ccc(Cl)c(Cl)c2Cl)cc(C(=O)O)c1 displays IC50 of < 100 nM

According to the records, this molecule O=C(O)c1cccc(COc2ccccc2Cl)c1 displays IC50 of > 2500 nM

According to the records, this molecule O=C(O)c1cccc(COc2ccc(Cl)cc2C(F)(F)F)n1 displays IC50 of < 100 nM

According to the records, this molecule Cc1noc(-c2cccc(COc3ccc(C(F)(F)F)cc3Cl)c2)n1 displays IC50 of < 2500 nM

According to the records, this molecule Cc1ccc(OCc2cccc(C(=O)O)c2)c(Cl)c1Cl displays IC50 of < 100 nM

According to the records, this molecule COC(=O)c1cccc(COc2ccc3ccccc3c2)n1 displays IC50 of < 100 nM

According to the records, this molecule O=C(O)c1cccc(COc2ccc(Cl)cc2Cl)c1Cl displays IC50 of < 100 nM

According to the records, this molecule O=C(O)c1cc(F)cc(COc2ccc(Cl)cc2Cl)c1 displays IC50 of < 100 nM

According to the records, this molecule O=C(O)c1cccc(COc2cccc(C(F)F)c2)c1 displays IC50 of > 2500 nM

According to the records, this molecule O=C(c1ccc(COc2ccc(C(F)(F)F)cc2Cl)cc1)N1CC2(COC2)C1 displays IC50 of < 2500 nM

---

EXPERIMENTAL_SYSTEM: Mas-related G-protein coupled receptor member X4 (Homo sapiens)
TEST_METHOD_NOTES: Antagonist activity at human MRGPRX4 expressed in HEK cells incubated in dark for 1 hr at 37 degree C and then incubated for 30 mins at room temperature in presence of 50 uM of obeticholic acid by HTRF assay
Format: functional, cell-based
MEASURE: IC50 (nM)

[A] O=C(O)c1cccc(COc2ccc(Cl)cc2C(F)(F)F)n1
[B] Cc1cc(C(F)(F)F)ccc1OCc1cccc(C(=O)O)c1F
Pick the one with the larger IC50: A vs B Pick one; state its label.
B
